Measured on: human B7-H3 protein (human) (UniProt Q5ZPR3)
Assay overview: Octet (BLI) epitope binning on captured human B7-H3; competitor CA84D
Entries and their inhibition ratio
Please give a number only; it is taken to be in %.

Req: Field request: inhibition ratio | item: 106A5B3 (antibody, V domains shown) VH: EVQLVESGGDLVKPGGSLKLSCAASGFTFSSYGMSWVRQTPDKRLEWVATISSGGSYIYYPDSMKGRFTISRDNAKNTLYLQMSSLQSEDTAIYYCASDYGSRYFDYWGQGTTLTVSS VL: QIVLTQSPAIMSASPGEKVTMTCSASSSVIYMSWYKQKPGSSPRLLIYDTSNLASGVPVRFSGSGSGTSYSLTISRMEAEDAATYYCQQWSSYPRTFGGGTKLEIK
Resp: -15.8

Req: Also need 312E1E2 (antibody, V domains shown) VH: QVQLQQSGPELVRPGVSVKISCKGSGYTFTDYAMHWVKQSHAKSLEWIGIVSTHYGNTNYNQNFKGKATMTVDKSSSTVYMELARLTSEDSAIYYCARSEGLRLDWFAHWGQGTLVTVSA VL: DIQMTQSPASLSASVGEIVTITCRASENIYSYLAWYQQKQGKSPHLLVYNAKTLAEGVPSRFSGSGSGTQFSLKISRLQPEDFGSYYCQNHYVFPFTFGSGTKLEIK , thanks.
Resp: -18.3

Req: Same for 294A3C4 (antibody, V domains shown) VH: QVQLQQPGAELVKPGASVKLSCKASGYTFTSYWMHWVKQRPGQGLEWIGMFHPNSGTTNYNEKFKSKATLTVDKSSSTAYMQLSSLTSEDSAVYYCARRLGIFFDYWGQGTTLTVSS VL: DIVMTQSPSSLTVTAGEKVTMSCRSSQSLLNSGNQKNYLTWYQQKPGQPPKLLIYWASTRDSGVPDRFTGSGSGTDFTLTISSVQTEDLAVYYCQTDYSYPFTFGSGTKLEIK
Resp: -12

Req: Next binder up: 81C8A1 (antibody, V domains shown) VH: QVTLKESGPGILQPSQTLSLTCSFSGFSLSTSGMGVSWIRQPPGKGLEWLAHIYWDDDRRYNPSLKSRLTISRDTSRNQVFLQITTVDTADTATYYCARSPYGSEAYWGQGTLVIVSA VL: QIVLSQSPTILSAFPGEKVTMTCRASSSVSFIQWYQQKSGSSPKPWIYSPSNLASGVPTRFSGSGSGTSYSLTIGRVEAEDAATYYCQQWSSYPWTFGGGTKVEIK
Resp: -6.3

Continuing:
Req: Look up inhibition ratio: 429H9F10 (antibody, V domains shown) VH: QIQLVQSGPELKKPGETVKISCKASGYTFTYYGLNWVKQAPGKGLRWMGWINTSSGVPTYADDFKGRFAISLESSASTVFLEISNLKNEDTAAYFCAKDDGYFYTMDHWGQGTSVTVSS VL: DIVMTQPPLSLPVSLGDQASISCRSSQSLVHNNGKTYLHWYLQKPGQSPKLLIYKVSNRFSGVPDRFSGSGSGTDFTLKISRVETEDLGVYFCSQSTQVPWTFGGGTKLEIK
Resp: -8
